B1: Double-stranded RNA-binding protein Staufen homolog 1, residues 183 to 249; numbered along this chain, O95793 (parent)
chain: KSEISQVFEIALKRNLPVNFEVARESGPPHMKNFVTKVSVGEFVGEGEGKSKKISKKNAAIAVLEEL

Variants of: B1
assay-notes: abundance fitness (aPCA) (normalised: wild type 0, dead -1); higher = more abundant; growth selection in yeast, the domain comes from the species named
condition-label: Homo sapiens
endpoint-name: abundance fitness
I only need the number, thanks.

A23E = -0.102
A23T = 0.033
K56R = -0.042

Name the reported abundance fitness value associated with the variant `L12T`
-0.155
